# STUDY_SYSTEM: ABHD6 (Mus musculus, UniProt Q8R2Y0)
# Sequence (Q8R2Y0 1-336): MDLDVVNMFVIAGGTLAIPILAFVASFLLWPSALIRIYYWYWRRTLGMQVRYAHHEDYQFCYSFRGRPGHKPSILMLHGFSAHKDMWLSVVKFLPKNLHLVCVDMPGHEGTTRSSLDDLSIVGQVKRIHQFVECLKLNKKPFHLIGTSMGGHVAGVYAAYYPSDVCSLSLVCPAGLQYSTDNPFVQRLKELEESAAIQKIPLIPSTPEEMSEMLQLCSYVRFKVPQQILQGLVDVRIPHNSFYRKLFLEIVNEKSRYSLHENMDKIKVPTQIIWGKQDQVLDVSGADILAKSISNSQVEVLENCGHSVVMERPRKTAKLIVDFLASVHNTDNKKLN
# IC50 annotations

>  <COMPOUND>
CS(=O)(=O)N1CCC2(CCN(c3cccc(C(F)(F)F)c3CN3CC4(CCN(C(=O)OC(C(F)(F)F)C(F)(F)F)CC4)C3)CC2)C1 [Example 62]

>  <IC50>
> 1000 nM

$$$$
>  <COMPOUND>
O=C(OC(C(F)(F)F)C(F)(F)F)N1CCC2(CC1)CN(Cc1ccc(Cl)cc1N1CCCC1)C2 [Example 34]

>  <IC50>
100 to 1000 nM

$$$$
>  <COMPOUND>
O=C(OC(C(F)(F)F)C(F)(F)F)N1CCC2(CC1)CN(Cc1ccc(Cl)cc1N1CCCCC1)C2 [Example 38]

>  <IC50>
100 to 1000 nM

$$$$
>  <COMPOUND>
CS(=O)(=O)N1CC2(CCN(c3cc(Cl)ccc3CN3CCN(C(=O)OC(C(F)(F)F)C(F)(F)F)CC3)CC2)C1 [Example 212]

>  <IC50>
> 1000 nM

$$$$
>  <COMPOUND>
CC(=O)N1CCC2(CC1)CCN(c1cc(Cl)ccc1CN1CCN(C(=O)OC(C(F)(F)F)C(F)(F)F)CC1)C2 [Example 29]

>  <IC50>
> 1000 nM

$$$$
>  <COMPOUND>
CN(Cc1ccc(C(F)(F)F)cc1N1CCOCC1)C1(C)CCN(C(=O)OC(C(F)(F)F)C(F)(F)F)CC1 [Example 63]

>  <IC50>
> 1000 nM

$$$$
>  <COMPOUND>
O=C(OC(C(F)(F)F)C(F)(F)F)N1CCC2(CC1)CN(Cc1c(Cl)cccc1N1CCC3(CCOCC3)C1)C2 [Example 48]

>  <IC50>
< 100 nM

$$$$
